Target: T1, VEGF121 (UniProt P15692-9 27-147)
T1 construct: VEGF121, 3000 RU, immobilised on a CM5 chip; also called Vascular endothelial growth factor
T1 sequence (looked up): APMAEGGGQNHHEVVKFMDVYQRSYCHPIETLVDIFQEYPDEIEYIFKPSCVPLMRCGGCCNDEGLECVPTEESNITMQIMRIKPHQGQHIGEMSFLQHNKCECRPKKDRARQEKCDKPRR
Experiment: SPR, BIAcore X; VEGF121 on CM5 chip, peptide as analyte
pKd: −log10 of the molar value.
measured-quantity: pKd

[[record]]
binder = "HANFFQGSWTWENGKWTWKGWKYNQS (designed binder, Synthetic 26-mer, all L-amino acids; also called L-AptideVEGF; Aptide1VEGF (L-form)) [L-Aptide1VEGF]"
observed_measurement = 7.52

